# Test system: Mycolicibacterium phlei
# assay: Antibacterial activity against Mycobacterium phlei
# Format: functional

{"columns": ["smiles_entry", "target_entity", "MIC"],
 "data": [
  ["CCCCCCCCCNC(=O)C1=CCN(C)[C@@H]([C@H](O[C@@H]2O[C@H](CN)[C@@H](O)[C@H]2O)[C@H]2O[C@@H](n3ccc(=O)[nH]c3=O)[C@H](O)[C@@H]2O)C(=O)N1C", "Mycolicibacterium phlei", "3.13 µg/mL"],
  ["CCCCCCCCCCCCCCCCCCOC(=O)C1=CCN(C)[C@@H]([C@H](O[C@@H]2O[C@H](CN)[C@@H](O)[C@H]2O)[C@H]2O[C@@H](n3ccc(=O)[nH]c3=O)[C@H](O)[C@@H]2O)C(=O)N1C", "Mycolicibacterium phlei", "> 100 µg/mL"],
  ["CCCCCCCCNC(=O)C1=CCN(C)[C@@H]([C@H](O[C@@H]2O[C@H](CN)[C@@H](O)[C@H]2O)[C@H]2O[C@@H](n3ccc(=O)[nH]c3=O)[C@H](O)[C@@H]2O)C(=O)N1C", "Mycolicibacterium phlei", "100 µg/mL"],
  ["CCCCCCCNC(=O)C1=CCN(C)[C@@H]([C@H](O[C@@H]2O[C@H](CN)[C@@H](O)[C@H]2O)[C@H]2O[C@@H](n3ccc(=O)[nH]c3=O)[C@H](O)[C@@H]2O)C(=O)N1C", "Mycolicibacterium phlei", "> 100 µg/mL"],
  ["CCCCCCCCCCCCCCCNC(=O)C1=CCN(C)[C@@H]([C@H](O[C@@H]2O[C@H](CN)[C@@H](O)[C@H]2O)[C@H]2O[C@@H](n3ccc(=O)[nH]c3=O)[C@H](O)[C@@H]2O)C(=O)N1C", "Mycolicibacterium phlei", "6.25 µg/mL"]
]}

Origin of measurements: ChEMBL document CHEMBL4402510
